- test.system: T1, Human PD-L1 Fc-fusion protein (R&D Systems, 156-B7) (Homo sapiens, UniProt Q9NZQ7)
- T1 construct: programmed death-ligand 1 (PD-L1, B7-H1, CD274), human; also called huPD-L1; B7-H1; source: bought: R&D Systems (156-B7)
- T1 sequence (Q9NZQ7 19-238): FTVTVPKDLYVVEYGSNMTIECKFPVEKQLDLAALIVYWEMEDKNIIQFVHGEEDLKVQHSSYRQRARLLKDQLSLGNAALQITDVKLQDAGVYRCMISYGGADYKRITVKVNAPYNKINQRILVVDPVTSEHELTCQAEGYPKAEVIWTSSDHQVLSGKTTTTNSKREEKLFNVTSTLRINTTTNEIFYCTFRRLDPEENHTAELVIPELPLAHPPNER
- experiment.summary: SPR; Biacore T200, 25°C, HBS (0.01 M HEPES pH 7.4, 0.15 M NaCl, 3 mM EDTA, 0.005% Tween 20); mouse or human PD-L1 Fc-fusion protein amine-coupled on a CM5 chip (650-900 RU); Nb in crude periplasmic extract as analyte, its concentration estimated by CFCA; 9 dilutions, 120 s association, 160 s dissociation; 1-to-1 fit; affinity estimations
- measurement.conditions: one partner purified
measured.endpoint: pKd
The read-out pKd is expressed as -log10 of concentration in moles per litre.

See these solved cases before continuing.
Nb L1 (HA-tagged, in periplasmic extract) (VHH, source: E. coli WK6 (pHEN4), crude periplasmic extract) VHH: VQAGGSLRLSCAASGYRYCRYDMSWYRQAPGKEREFVSAIDSYGSPTYADTVLGRFTISRDNAKNTVYLQMNSLKAEDTAMYYCKIDSTGWSSRCGKTYWGQGTQVTVSS : 7.47
Nb C6 (HA-tagged, in periplasmic extract) (VHH, source: E. coli WK6 (pHEN4), crude periplasmic extract) VHH: QVQLQESGGGLVQAGDSLRLSCAASGSTVSSSMMAWWRQTPGNQRELVALVASGNNTNYVDSVKGRFTVSRDNAKNTMYLQMNSLKPEDTAVYYCRILSVNGIWYWGQGTQVTVSS : 7.03
Nb C15 (HA-tagged, in periplasmic extract) (VHH, source: E. coli WK6 (pHEN4), crude periplasmic extract) VHH: QVQLQESGGGLVQTGGSLRVSCAVSGSTVSRSTMAWWRQTPGNQRELVALVDSGGKSNYVDSVKGRFTISTDNAKNTMYLQMNSLKPEDTAVYYCRILSVQGIWYWGQGTQVTVSS : 6.47
Nb G5 (HA-tagged, in periplasmic extract) (VHH, source: E. coli WK6 (pHEN4), crude periplasmic extract) VHH: QVQLQESGGGLVQPGGSLRLSCAASGSFFRTYIVSWYRQAPGKRREAVAVMSNSGNTNYADSVKGRFTISRDNAVNTVYLQMNSLKPEDTAVYYCNLLKVTVPPANYWGQGTQVTVSS : 7.80

q: Fill in the blank: the reported pKd of Nb E1 (HA-tagged, in periplasmic extract) (VHH, source: E. coli WK6 (pHEN4), crude periplasmic extract) VHH: QVQLQESGGGLVQAGGSLRLSCATSGSIFSIISMGWYRQAPGKQRELVALVFRGGSTVYADSVKGRFTISGDIAKNTVYLQMDSLKPEDTAVYYCNVKSIGTAQYWGQGTQVTVSS is ____.
a: 7.92

q: Fill blank: measured pKd of the binder Nb E5 (HA-tagged, in periplasmic extract) (VHH, source: E. coli WK6 (pHEN4), crude periplasmic extract) VHH: QVQLQESGGGLVQPGGSLRLSCATSGSIFSIISMGWYRQAPGKQRELVALVFRGGSTVYADSVKGRFTISGDIAKSTVYLQMDSLKPEDTAVYYCNAKPIGTAQYWGQGTQVTVSS is ____.
a: 7.27

q: Name the recorded pKd for Nb C14 (HA-tagged, in periplasmic extract) (VHH, source: E. coli WK6 (pHEN4), crude periplasmic extract) VHH: QVQLQESGGGLVQTGGSLRLSCAASGSTVGSSTMAWWRQTPGNQRELVALVGLGGNTNYVDSVKGRFTVSIDNAENTMYLQMNSLKFEDTAVYYCRILSVNGIWYWGQGTQVTVSS .
a: 7.15

q: What value of pKd has been recorded for this entry: Nb C12 (HA-tagged, in periplasmic extract) (VHH, source: E. coli WK6 (pHEN4), crude periplasmic extract) VHH: QVQLQESGGGLVQTGGSLRLSCAASGSTVSSSTMAWWRQTPGNQRELVALVASGGNTNYVDSVKGRFTVSRDNAKNTMYLQMNSLKAEDTAVYYCRILSVNGIWYWGQGTQVTVSS
a: 6.74

q: Can you share its pKd? I mean this binder: Nb E6 (HA-tagged, in periplasmic extract) (VHH, source: E. coli WK6 (pHEN4), crude periplasmic extract) VHH: QVQLQESGGGLVQAGGSLRLSCATSGSIFSIISMGWYRQAPGKQRELVALVFRGGSTVYADSVKGRFTISGDIAKSTVYLQMDSLKPEDTAVYYCNAKPIGTAQYWGQGTQVTVSS
a: 6.66

q: Name the recorded pKd for Nb G7 (HA-tagged, in periplasmic extract) (VHH, source: E. coli WK6 (pHEN4), crude periplasmic extract) VHH: QVQLQESGGGLVQSGGSLRLSCAASGSFFRTYIVSWYRQAPGKRREAVAVMSNSGNTNYADSVKGRFTISRDNAVNTVYLQMNSLKPEDTAVYYCNLLKVTVPPANYWGQGTQVTVSS .
a: 6.89

q: Returns the measured pKd for the input binder. Input: Nb C13 (HA-tagged, in periplasmic extract) (VHH, source: E. coli WK6 (pHEN4), crude periplasmic extract) VHH: QVQLQESGGGLVQTGGSLRLSCAASGSTVSSSTMAWYRQTPGNQRDLVALVGSGGNINYVDSVKGRFTVSIDNAKNTMYLQMNSLKPEDTAVYYCRILSVNGIWYWGQGTQVTVSS
a: 6.79

q: pKd for Nb C11 (HA-tagged, in periplasmic extract) (VHH, source: E. coli WK6 (pHEN4), crude periplasmic extract) VHH: QVQLQESGGGLVQTGGSLRLSCAASGSTVSSSTMAWWRQTPGNQRELVALVASGGNTNYVDSVKGRFTVSRDNAKNTMYLQMNSLKPEDTAVYYCRILSVNGIWYWGQGTQVTVSS ?
a: 6.61

q: Item under review: Nb C7 (HA-tagged, in periplasmic extract) (VHH, source: E. coli WK6 (pHEN4), crude periplasmic extract) VHH: QVQLQESGGGSVQAGESLTLSCTASGSSLSHKSVGWWRQTPGNQRELVALVASGNNTNYVDSVKGRFTVSRDNAKNTMYLQMNSLKPEDTAVYYCRILSVNGIWYWGQGTQVTVSS . Reported pKd?
a: 7.57

q: For Nb G6 (HA-tagged, in periplasmic extract) (VHH, source: E. coli WK6 (pHEN4), crude periplasmic extract) VHH: QVQLQESGGGLVQPGESLRLSCVASGSFFRTYIVSWYRQAPGKRREAVAVMSNSGNTNYADSVKGRFTISRDNAVNTVYLQMNSLKPEDTAVYYCNLLKVTVPPANYWGQGTQVTVSS , what is its reported pKd?
a: 7.68

q: Request the reported pKd associated with Nb E2 (HA-tagged, in periplasmic extract) (VHH, source: E. coli WK6 (pHEN4), crude periplasmic extract) VHH: QVQLQESGGGLVQAGGSLRLSCATSGSIFSIISMGWYRQAPGKQRELVALVFRGGSTVYADSVKGRFTISGDIAKNTVYLQMDSLKPEDTAVYYCNVKSIGTAQYWGQGTQITVSS
a: 7.03
